Origin of values: patent US20080318943A1

Target: GABAA receptor α1β2γ2 (Homo sapiens, UniProt P14867+P18507)
Construct: expressed in transfected cells; host or cells: Xenopus laevis oocytes injected with cRNA
Sequence (P14867 28-456): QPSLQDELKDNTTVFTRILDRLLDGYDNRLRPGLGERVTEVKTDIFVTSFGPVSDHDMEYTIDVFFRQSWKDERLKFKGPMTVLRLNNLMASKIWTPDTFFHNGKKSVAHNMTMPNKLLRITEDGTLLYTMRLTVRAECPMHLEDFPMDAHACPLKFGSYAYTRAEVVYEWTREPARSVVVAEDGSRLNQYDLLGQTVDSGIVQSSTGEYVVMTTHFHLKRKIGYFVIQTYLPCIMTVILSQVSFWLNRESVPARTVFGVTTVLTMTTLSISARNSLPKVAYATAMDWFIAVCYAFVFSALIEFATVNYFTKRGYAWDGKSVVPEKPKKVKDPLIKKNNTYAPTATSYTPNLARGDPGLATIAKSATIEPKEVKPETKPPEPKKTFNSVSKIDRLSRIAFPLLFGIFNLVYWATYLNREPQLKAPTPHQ
Sequence (P47870 25-512 partner limits assumed): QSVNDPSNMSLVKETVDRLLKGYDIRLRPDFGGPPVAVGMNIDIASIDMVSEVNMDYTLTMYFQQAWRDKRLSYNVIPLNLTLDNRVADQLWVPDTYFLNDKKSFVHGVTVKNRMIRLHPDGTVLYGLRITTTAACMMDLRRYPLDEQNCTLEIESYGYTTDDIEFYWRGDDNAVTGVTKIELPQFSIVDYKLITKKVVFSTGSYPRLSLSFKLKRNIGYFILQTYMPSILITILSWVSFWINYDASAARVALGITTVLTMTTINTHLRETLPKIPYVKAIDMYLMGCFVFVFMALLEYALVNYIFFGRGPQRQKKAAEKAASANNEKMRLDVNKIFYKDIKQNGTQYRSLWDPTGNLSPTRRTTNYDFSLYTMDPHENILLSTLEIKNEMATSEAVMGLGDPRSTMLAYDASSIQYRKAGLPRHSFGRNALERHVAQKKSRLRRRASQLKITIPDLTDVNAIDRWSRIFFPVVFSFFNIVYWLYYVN
Sequence (P18507 40-475): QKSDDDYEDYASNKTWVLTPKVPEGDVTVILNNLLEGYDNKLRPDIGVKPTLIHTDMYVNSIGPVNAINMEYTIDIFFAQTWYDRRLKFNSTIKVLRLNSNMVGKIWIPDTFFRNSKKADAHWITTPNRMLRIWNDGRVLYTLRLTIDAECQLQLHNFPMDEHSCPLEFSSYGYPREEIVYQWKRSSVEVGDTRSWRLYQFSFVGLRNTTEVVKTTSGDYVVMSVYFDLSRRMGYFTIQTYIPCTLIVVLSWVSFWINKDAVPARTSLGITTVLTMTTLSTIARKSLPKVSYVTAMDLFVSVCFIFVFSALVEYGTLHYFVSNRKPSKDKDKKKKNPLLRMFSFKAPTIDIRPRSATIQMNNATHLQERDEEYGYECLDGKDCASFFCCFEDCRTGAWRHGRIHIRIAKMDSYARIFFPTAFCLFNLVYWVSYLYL
Assay: Two-electrode voltage-clamp potentiation of GABA EC10 current in Xenopus oocytes, GABAA1
Assay type: cell-based
Conditions: percentage potentiation of GABA EC10 current divided by that of diazepam
Measured Parameter: Relative Potentiation for GABAA1

Smiles Code	Relative Potentiation for GABAA1
CCCCN1Cc2nc3c(-c4cccnc4OC)cccc3c(N)c2C1=O	0.5
COc1cc(F)ccc1-c1cccc2c(N)c3c(nc12)CN(C1CCC1)C3=O	0.035
Cc1cc(-c2cccc3c(N)c4c(nc23)CN(C2CCC2)C4=O)cnc1F	0.018
COc1cccc(F)c1-c1cccc2c(N)c3c(nc12)CN(C)C3=O	0.046
COc1ccc(CN2Cc3nc4c(-c5cc(F)ccc5C)cccc4c(N)c3C2=O)cc1	0.22
N#Cc1ccccc1-c1cccc2c(N)c3c(nc12)CN(C1CCCC1)C3=O	0.062
CCCN1Cc2nc3c(-c4cccc(C#N)c4)cccc3c(N)c2C1=O	0.54
COc1ncccc1-c1c(F)ccc2c(N)c3c(nc12)CN(C1CC1)C3=O	0.11
CCCN1Cc2nc3c(-c4cnccc4C)cccc3c(N)c2C1=O	0.36

We next turn to a different compound, shown below.
Request: Need Relative Potentiation for GABAA1, item `CCN1Cc2nc3c(-c4cccc(F)c4OC)cccc3c(N)c2C1=O`
Result: 0.052

----------
Target: GABAA2 receptors (α2, β3, γ2 receptor subunits transfected into Sf9 cells) (Homo sapiens, UniProt P18507+P47869)
Sequence (P47869 29-451): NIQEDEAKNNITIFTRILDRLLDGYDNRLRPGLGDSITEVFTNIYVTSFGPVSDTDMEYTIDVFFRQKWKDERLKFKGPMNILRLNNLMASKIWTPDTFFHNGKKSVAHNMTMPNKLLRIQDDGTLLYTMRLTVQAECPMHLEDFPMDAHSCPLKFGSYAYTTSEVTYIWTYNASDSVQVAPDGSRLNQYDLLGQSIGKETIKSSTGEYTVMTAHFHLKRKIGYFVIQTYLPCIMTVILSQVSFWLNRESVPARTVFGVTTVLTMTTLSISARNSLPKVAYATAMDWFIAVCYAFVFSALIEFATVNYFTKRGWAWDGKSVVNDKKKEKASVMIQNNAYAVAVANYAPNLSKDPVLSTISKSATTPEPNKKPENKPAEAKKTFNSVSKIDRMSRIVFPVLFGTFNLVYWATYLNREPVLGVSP
Sequence (P28472 26-473 partner): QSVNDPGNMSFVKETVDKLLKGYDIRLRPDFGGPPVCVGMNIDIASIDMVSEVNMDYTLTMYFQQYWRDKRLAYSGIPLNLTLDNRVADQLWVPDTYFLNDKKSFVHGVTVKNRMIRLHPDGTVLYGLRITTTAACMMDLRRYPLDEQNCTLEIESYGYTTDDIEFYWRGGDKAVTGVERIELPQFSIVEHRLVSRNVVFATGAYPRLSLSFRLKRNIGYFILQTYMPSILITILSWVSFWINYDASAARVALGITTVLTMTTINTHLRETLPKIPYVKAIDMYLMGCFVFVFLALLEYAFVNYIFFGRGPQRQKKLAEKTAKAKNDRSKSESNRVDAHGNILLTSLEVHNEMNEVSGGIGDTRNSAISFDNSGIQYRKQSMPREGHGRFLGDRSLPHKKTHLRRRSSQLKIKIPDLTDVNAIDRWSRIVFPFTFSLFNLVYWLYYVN
Sequence (P18507 40-475): as the sequence (P18507 40-475) above
Assay: GABAA2 Binding Method ([3H]-Flunitrazepam displacement)
Settings: [3H]-Flunitrazepam ~2 nM, α2β3γ2 Sf9 membranes, 1 hr at 4° C.
Please provide measured pKi for the entries that follow.
One number for each entry, as −log10 of the molar value.

Solved cases (3 shown):
Smiles Code	pKi
CCN1Cc2nc3c(-c4ccc(OC)c(F)c4)cccc3c(N)c2C1=O	7.37
COc1ccc(CN2Cc3nc4c(-c5cc(F)c(OC)cc5F)cccc4c(N)c3C2=O)cc1	7.32
COc1cccc(Cl)c1-c1c(F)ccc2c(N)c3c(nc12)CN(C1CC1)C3=O	8.31

Would you mind listing pKi for each of the following compounds?
1. CCN1Cc2nc3c(-c4ccc(OC)nc4OC)c(F)ccc3c(N)c2C1=O
2. Nc1c2c(nc3c(-c4cccc(F)c4F)cccc13)CN(C1CC1)C2=O
3. CCN1Cc2nc3c(-c4cccnc4OC)c(F)ccc3c(N)c2C1=O
4. COc1ccc(-c2c(F)ccc3c(N)c4c(nc23)CN(C2CC2)C4=O)c(OC)c1
5. COc1cccc(F)c1-c1cccc2c(N)c3c(nc12)CN(C)C3=O
6. CCCN1Cc2nc3c(-c4ccc(Cl)nc4Cl)cccc3c(N)c2C1=O
7. COc1ccc(CN2Cc3nc4c(-c5cncc(OC)c5)cccc4c(N)c3C2=O)cc1
8. CCN1Cc2nc3c(-c4cccc(OC)c4OC)cccc3c(N)c2C1=O

Result:
[8.05, 7.77, 8.39, 8.08, 7.73, 7.67, 8.22, 7.09]

Would you mind listing pKi for each of the following compounds?
1. CCN1Cc2nc3c(-c4ccc(F)cc4F)c(F)ccc3c(N)c2C1=O
2. CCCN1Cc2nc3c(-c4cc(C)ccc4F)cccc3c(N)c2C1=O
3. CCCN1Cc2nc3c(-c4cc(Cl)cnc4OC)cccc3c(N)c2C1=O
4. CCCN1Cc2nc3c(-c4ccc(F)nc4C)cccc3c(N)c2C1=O
5. CCCN1Cc2nc3c(-c4cc(OC)cc(OC)c4)cccc3c(N)c2C1=O
6. COc1cccc(-c2cccc3c(N)c4c(nc23)CN(C2CCC2)C4=O)n1

Result:
8.41
8.17
7.67
7.65
7.33
8.83

Would you mind listing pKi for each of the following compounds?
1. CCCN1Cc2nc3c(-c4cc(C)nn4C)cccc3c(N)c2C1=O
2. COc1ccc(Cl)c(-c2cccc3c(N)c4c(nc23)CN(C2CC2)C4=O)c1
3. COc1ncc(-c2cccc3c(N)c4c(nc23)CN(C2CC2)C4=O)c(OC)n1
4. COc1ncccc1-c1c(F)ccc2c(N)c3c(nc12)CN([C@H]1CCOC1)C3=O

Result:
7.67
7.48
7.11
8.25
